Here the recorded Hepatocyte Mice is given for each entry.
- Protocol description: Hepatocyte stability, mice
- Assay type: in vitro ADME
- Experimental conditions: clearance in hepatocytes
- Procedure: Cryopreserved hepatocytes are incubated in an appropriate buffer system containing 50% species serum. […] The remaining amount of parent compound in the supernatants is then analysed by HPLC-MS/MS. Clearance is calculated from compound half-lives using the well-stirred liver model and is converted to clearance stated as % of the liver blood flow (% Qh).
*1 amine or outer side, *2 acyl side, *3 side chain or, on linkers, in order; H or OH if unused. Where a SMILES comes first, the peptide text is derived from it. [ ]: non-standard residue; d: D form. ξ: configuration not given here. X3 = C#CCOc1ccc([C@@H](OC)[C@H](N[*:1])C(=O)[*:2])cc1; X5 = C=CCn1cc(C[C@@H](C(=O)[*:2])N(C)[*:1])c2ccccc21; X1 = C#CCn1cc(C[C@H](N[*:1])C(=O)[*:2])c2ccccc21; NMeLeu(5-OH,4R) = CN[C@@H](C[C@@H](C)CO)C(=O)O; Phe(βR-OMe) = CO[C@H](c1ccccc1)[C@H](N)C(=O)O; ξNMeTrp(1-Me) = CNC(Cc1cn(C)c2ccccc12)C(=O)O; Trp(1-Me) = Cn1cc(C[C@H](N)C(=O)O)c2ccccc21; X8 = CC(CO)C[C@@H](C(=O)[*:2])N(C)[*:1]; NMeL = CN[C@@H](CC(C)C)C(=O)O; Pra = C#CC[C@H](N)C(=O)O; ξV = CC(C)C(N)C(=O)O

Compound	Hepatocyte Mice [%Qh]
C#CCOc1ccc([C@@H](OC)[C@@H]2NC(=O)[C@@H](C)NC(=O)[C@H](CC(C)CO)N(C)C(=O)C(Cc3cn(C)c4ccccc34)N(C)C(=O)C(C(C)C)NC(=O)[C@H](CC(C)C)N(C)C(=O)[C@@H](C(C)C)NC2=O)cc1 (stereo partly shown) [SI-64] (cyclo([NMeL][ξV][ξNMeTrp(1-Me)][X8][dA][X3][dV]))	34
COC(c1ccccc1)C1NC(=O)C(C)NC(=O)C(CC(C)CO)N(C)C(=O)C(Cc2cn(Cc3cn(CCOCCOCCOCCOCCn4cc(Cn5cc(CC6NC(=O)C(C(C)C)NC(=O)C(CC(C)C)N(C)C(=O)C(C(C)C)NC(=O)C(C(OC)c7ccccc7)NC(=O)C(C)NC(=O)C(CC(C)CO)N(C)C6=O)c6ccccc65)nn4)nn3)c3ccccc23)NC(=O)C(C(C)C)NC(=O)C(CC(C)C)N(C)C(=O)C(C(C)C)NC1=O (stereo not shown)	32
CO[C@H](c1ccc(OCc2cn(CCCCCn3cc(COc4ccc([C@@H](OC)[C@@H]5NC(=O)[C@H](C)NC(=O)[C@H](C[C@@H](C)CO)N(C)C(=O)[C@H](Cc6cn(C)c7ccccc67)N(C)C(=O)[C@H](C(C)C)NC(=O)[C@H](CC(C)C)N(C)C(=O)[C@H](C(C)C)NC5=O)cc4)nn3)nn2)cc1)[C@@H]1NC(=O)[C@H](C)NC(=O)[C@H](C[C@@H](C)CO)N(C)C(=O)[C@H](Cc2cn(C)c3ccccc23)N(C)C(=O)[C@H](C(C)C)NC(=O)[C@H](CC(C)C)N(C)C(=O)[C@H](C(C)C)NC1=O	15
C=CCn1cc(C[C@H]2C(=O)N(C)[C@@H](C[C@@H](C)CO)C(=O)N[C@@H](C)C(=O)N[C@@H]([C@H](OC)c3ccccc3)C(=O)N[C@@H](C(C)C)C(=O)N(C)[C@@H](CC(C)C)C(=O)N[C@@H](C(C)C)C(=O)N2C)c2ccccc21 [SI-60] (cyclo(A[Phe(βR-OMe)]V[NMeL]V[X5][NMeLeu(5-OH,4R)]))	61
COC(c1ccc(OCc2cn(CCOCCOCCOCCOCCn3cc(COc4ccc(C(OC)C5NC(=O)C(C)NC(=O)C(CC(C)CO)N(C)C(=O)C(Cc6cn(C)c7ccccc67)NC(=O)C(C(C)C)NC(=O)C(CC(C)C)N(C)C(=O)C(C(C)C)NC5=O)cc4)nn3)nn2)cc1)C1NC(=O)C(C)NC(=O)C(CC(C)CO)N(C)C(=O)C(Cc2cn(C)c3ccccc23)NC(=O)C(C(C)C)NC(=O)C(CC(C)C)N(C)C(=O)C(C(C)C)NC1=O (stereo not shown)	15
C#CC[C@@H]1NC(=O)[C@H](CC(C)C)N(C)C(=O)[C@H](C(C)C)NC(=O)[C@H]([C@H](OC)c2ccccc2)NC(=O)[C@H](C)NC(=O)[C@H](C[C@@H](C)CO)N(C)C(=O)[C@H](Cc2cn(C)c3ccccc23)NC1=O [Compound 10] (cyclo(A[Phe(βR-OMe)]V[NMeL][Pra][Trp(1-Me)][NMeLeu(5-OH,4R)]))	64
CO[C@H](c1ccccc1)[C@@H]1NC(=O)[C@H](C)NC(=O)[C@H](C[C@@H](C)CO)N(C)C(=O)[C@H](Cc2cn(Cc3cn(CCCCCn4cc(Cn5cc(C[C@H]6C(=O)N(C)[C@@H](C[C@@H](C)CO)C(=O)N[C@@H](C)C(=O)N[C@@H]([C@H](OC)c7ccccc7)C(=O)N[C@@H](C(C)C)C(=O)N(C)[C@@H](CC(C)C)C(=O)N[C@@H](C(C)C)C(=O)N6C)c6ccccc65)nn4)nn3)c3ccccc23)N(C)C(=O)[C@H](C(C)C)NC(=O)[C@H](CC(C)C)N(C)C(=O)[C@H](C(C)C)NC1=O	15
C#CCn1cc(C[C@@H]2NC(=O)[C@H](C(C)C)NC(=O)[C@H](CC(C)C)N(C)C(=O)[C@H](C(C)C)NC(=O)[C@H](Cc3ccccc3)NC(=O)[C@H](C)NC(=O)[C@H](C[C@@H](C)CO)N(C)C2=O)c2ccccc21 [SI-72] (cyclo(AFV[NMeL]V[X1][NMeLeu(5-OH,4R)]))	71
CO[C@H](c1ccc(OCc2cn(CCCCCn3cc(COc4ccc([C@@H](OC)[C@@H]5NC(=O)[C@H](C)NC(=O)[C@H](C[C@@H](C)CO)N(C)C(=O)[C@H](Cc6cn(C)c7ccccc67)NC(=O)[C@H](C(C)C)NC(=O)[C@H](CC(C)C)N(C)C(=O)[C@H](C(C)C)NC5=O)cc4)nn3)nn2)cc1)[C@@H]1NC(=O)[C@H](C)NC(=O)[C@H](C[C@@H](C)CO)N(C)C(=O)[C@H](Cc2cn(C)c3ccccc23)NC(=O)[C@H](C(C)C)NC(=O)[C@H](CC(C)C)N(C)C(=O)[C@H](C(C)C)NC1=O	15
CO[C@H](c1ccccc1)[C@@H]1NC(=O)[C@H](C)NC(=O)[C@H](C[C@@H](C)CO)N(C)C(=O)[C@H](Cc2cn(C)c3ccccc23)N(C)C(=O)[C@H](Cc2cn(CCOCCOCCn3cc(C[C@@H]4NC(=O)[C@H](CC(C)C)N(C)C(=O)[C@H](C(C)C)NC(=O)[C@H]([C@H](OC)c5ccccc5)NC(=O)[C@H](C)NC(=O)[C@H](C[C@@H](C)CO)N(C)C(=O)[C@H](Cc5cn(C)c6ccccc56)N(C)C4=O)nn3)nn2)NC(=O)[C@H](CC(C)C)N(C)C(=O)[C@H](C(C)C)NC1=O	15
